Answer each item with its documented kon.
Target: Prolyl endopeptidase FAP (Homo sapiens)
Sequence (Q12884 whole entry): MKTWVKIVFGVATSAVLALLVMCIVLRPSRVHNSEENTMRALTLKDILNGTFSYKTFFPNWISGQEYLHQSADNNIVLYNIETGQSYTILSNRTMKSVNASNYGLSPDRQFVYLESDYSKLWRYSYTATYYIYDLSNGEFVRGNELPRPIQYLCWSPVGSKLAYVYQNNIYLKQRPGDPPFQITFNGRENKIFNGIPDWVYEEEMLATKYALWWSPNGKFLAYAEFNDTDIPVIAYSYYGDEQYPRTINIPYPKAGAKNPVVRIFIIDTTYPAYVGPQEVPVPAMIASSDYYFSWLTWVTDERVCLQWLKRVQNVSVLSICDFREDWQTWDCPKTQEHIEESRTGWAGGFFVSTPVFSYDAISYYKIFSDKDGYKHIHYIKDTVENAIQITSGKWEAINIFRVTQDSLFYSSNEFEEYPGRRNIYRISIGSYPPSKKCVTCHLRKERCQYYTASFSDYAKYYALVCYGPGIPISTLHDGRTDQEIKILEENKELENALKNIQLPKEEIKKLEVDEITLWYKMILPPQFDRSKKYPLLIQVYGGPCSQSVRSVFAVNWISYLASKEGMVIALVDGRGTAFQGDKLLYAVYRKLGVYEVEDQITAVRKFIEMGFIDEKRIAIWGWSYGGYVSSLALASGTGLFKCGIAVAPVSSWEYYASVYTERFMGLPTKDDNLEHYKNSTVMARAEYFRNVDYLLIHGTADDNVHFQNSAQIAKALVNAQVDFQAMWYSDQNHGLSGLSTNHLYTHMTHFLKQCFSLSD
Experiment: hFAP Binding Assay
Settings: read-out: kon (M-1-s-1)
The reply should contain only the number, in M⁻¹ s⁻¹.

Consider the compound N#C[C@@H]1CSCN1C(=O)CNC(=O)c1ccnc2ccc(N3CCCC[C@H](F)C3)cc12 [US20230312550, Example 60] and give its measured kon.
1.7e+06

What measured kon goes with COCC[C@@H]1COCCN1c1ccc2nccc(C(=O)NCC(=O)N3CSC[C@H]3C#N)c2c1 [US20230312550, Example 95] ?
2.9e+06

Entry N#C[C@@H]1CSCN1C(=O)CNC(=O)c1ccnc2ccc(N3C[C@H]4C[C@@H]3CO4)cc12 [US20230312550, Example 76] has what kon?
1e+06

So what's the measured kon for this one? N#C[C@@H]1CSCN1C(=O)CNC(=O)c1ccnc2ccc(N3CC(F)(F)C3)cc12 [US20230312550, Example 23]
2.1e+06

Which kon value belongs to CC(F)(F)CC1CN(c2ccc3nccc(C(=O)NCC(=O)N4CSC[C@H]4C#N)c3c2)C1 [US20230312550, Example 140] ?
2.6e+06

Recorded kon of N#C[C@@H]1CSCN1C(=O)CNC(=O)c1ccnc2ccc(N3CCOCC3)c(Cl)c12 [US20230312550, Example 101] , please.
740000

Report kon for C[C@@H]1CN(c2ccc3nccc(C(=O)NCC(=O)N4CSC[C@H]4C#N)c3c2)C[C@H](C)[C@@H]1O [US20230312550, Example 7] please.
740000

Given the entry CC1(C)CCN(c2ccc3nccc(C(=O)NCC(=O)N4CSC[C@H]4C#N)c3c2)CC1 [US20230312550, Example 33] , report its measured kon.
1.1e+06

Would you mind telling me what kon value was observed for N#C[C@@H]1CSCN1C(=O)CNC(=O)c1ccnc2ccc(N3C[C@@H]4[C@H](C3)[C@H]4C(F)(F)F)cc12 [US20230312550, Example 208] ?
5.6e+06

So what does the record say about kon for N#C[C@@H]1CSCN1C(=O)CNC(=O)c1ccnc2ccc(N3CCC4(CC4)C3)cc12 [US20230312550, Example 49] ?
8.8e+06

Which kon is listed for N#C[C@@H]1CSCN1C(=O)CNC(=O)c1ccnc2ccc(-c3ccnc(F)c3)cc12 [US20230312550, Example 124] ?
3e+06

What measured kon goes with N#C[C@@H]1CSCN1C(=O)CNC(=O)c1ccnc2ccc(N3CC4CCC(C3)O4)cc12 [US20230312550, Example 79] ?
1.6e+07

Item N#C[C@@H]1CSCN1C(=O)CNC(=O)c1ccnc2ccc(N3CC(CC(F)F)C3)cc12 [US20230312550, Example 144] has what recorded kon?
9.1e+06

# lookup: kon of N#C[C@@H]1CSCN1C(=O)CNC(=O)c1ccnc2ccc(N3CC(F)(CF)C3)cc12 [US20230312550, Example 157]
1.9e+06

----------
I'd be grateful if you could share measured kon for these entries.
Target: Prolyl endopeptidase FAP (Homo sapiens)
Assay: hFAP Binding Assay
Settings: read-out: kon (M-1-s-1)
I only need the number, in M⁻¹ s⁻¹, no unit after it.

Given the compound "CC(C)C1(O)CCN(c2ccc3nccc(C(=O)NCC(=O)N4CSC[C@H]4C#N)c3c2)CC1" , what is its reported kon?
1.3e+06

Given "N#C[C@@H]1CSCN1C(=O)CNC(=O)c1ccnc2ccc(N3CCO[C@@H](C(F)(F)F)C3)cc12" , state its recorded kon.
2.4e+06

Request the reported kon associated with "N#C[C@@H]1CSCN1C(=O)CNC(=O)c1ccnc2ccc(N3C4CCC3CC4)cc12"
3.2e+06

Using the record for N#C[C@@H]1CSCN1C(=O)CNC(=O)c1ccnc2ccc(N3CC4C(C3)C4(F)F)cc12 (stereo not given in full) , report its kon.
1.1e+06

Any idea what kon was measured for "N#C[C@@H]1CSCN1C(=O)CNC(=O)c1c(F)cnc2ccc(N3CCOCC3)cc12" ?
410000
